Entries and their pIC50 values follow.
# tested system: Human HDAC6 (Homo sapiens)
# Construct: Full length with N-terminal GST tag, MW=159 kDa; GST (N)
# Sequence (Q9UBN7 1-1215): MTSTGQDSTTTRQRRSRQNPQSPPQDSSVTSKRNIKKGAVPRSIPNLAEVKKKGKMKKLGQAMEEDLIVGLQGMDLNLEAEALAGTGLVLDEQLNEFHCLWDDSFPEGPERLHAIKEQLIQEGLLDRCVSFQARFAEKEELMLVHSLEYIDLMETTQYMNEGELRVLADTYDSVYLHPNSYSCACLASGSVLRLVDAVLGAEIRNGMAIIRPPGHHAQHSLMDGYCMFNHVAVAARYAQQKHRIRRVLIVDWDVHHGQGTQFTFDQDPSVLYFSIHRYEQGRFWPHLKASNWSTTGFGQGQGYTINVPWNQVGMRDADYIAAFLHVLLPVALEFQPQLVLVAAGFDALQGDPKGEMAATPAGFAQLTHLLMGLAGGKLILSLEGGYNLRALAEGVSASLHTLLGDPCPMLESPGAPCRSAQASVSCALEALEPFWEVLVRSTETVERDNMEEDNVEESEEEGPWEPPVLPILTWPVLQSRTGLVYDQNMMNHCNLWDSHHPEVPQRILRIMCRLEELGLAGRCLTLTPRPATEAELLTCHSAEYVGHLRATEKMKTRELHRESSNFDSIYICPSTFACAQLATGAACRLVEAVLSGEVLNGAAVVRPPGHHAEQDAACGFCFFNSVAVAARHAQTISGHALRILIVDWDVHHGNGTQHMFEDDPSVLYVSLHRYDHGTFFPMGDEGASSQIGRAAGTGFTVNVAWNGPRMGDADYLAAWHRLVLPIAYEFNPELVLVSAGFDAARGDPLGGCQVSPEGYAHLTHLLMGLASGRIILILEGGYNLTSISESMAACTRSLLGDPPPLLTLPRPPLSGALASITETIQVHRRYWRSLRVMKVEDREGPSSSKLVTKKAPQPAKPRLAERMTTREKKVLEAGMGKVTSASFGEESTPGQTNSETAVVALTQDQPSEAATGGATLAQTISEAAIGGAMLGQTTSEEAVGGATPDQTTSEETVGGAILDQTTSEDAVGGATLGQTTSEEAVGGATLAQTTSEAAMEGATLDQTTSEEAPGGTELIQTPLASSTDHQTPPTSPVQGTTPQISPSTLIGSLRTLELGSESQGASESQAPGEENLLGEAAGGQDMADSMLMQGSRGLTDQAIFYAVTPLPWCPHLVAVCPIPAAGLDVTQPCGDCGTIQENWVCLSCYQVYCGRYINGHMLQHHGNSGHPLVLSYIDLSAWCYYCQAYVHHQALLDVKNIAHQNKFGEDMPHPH
# protocol notes: In vitro HDAC inhibition assay, HDAC6
# measurement setup: read-out: HDAC isoform IC50, HDAC6
Keep it numeric: pIC50 is minus log10 of the concentration in mol/L.

Consider the reported pIC50 for these compounds:
{"compound": "CCOC(=O)Nc1cccc(-c2csc(NC(=O)CCc3cc(C(=O)NO)no3)n2)c1", "pIC50": 8.48}
{"compound": "O=C(NO)c1cc(CCNC(=O)c2cc(-c3cccc(NC(=O)C4CCCCC4)c3)on2)on1", "pIC50": 8.17}
{"compound": "COc1ccc(C(=O)NC(Cc2cc(C(=O)NO)no2)Cc2c[nH]c3ccccc23)cc1OC (centres unmarked)", "pIC50": 6.14}
{"compound": "O=C(CCc1cc(C(=O)NO)no1)Nc1nc(-c2ccccc2)cs1", "pIC50": 7.51}
{"compound": "CC(C)(C)OC(=O)Nc1cccc(-c2cc(C(=O)NCc3ccc(C(=O)NO)cc3)no2)c1", "pIC50": 9.19}
{"compound": "O=C(NO)c1ccc(CNC(=O)c2cc(Cn3c4ccccc4c4ccccc43)on2)cc1", "pIC50": 9.22}

In: Look up pIC50 for this compound: CCOC(=O)Nc1ccc(-c2csc(NC(=O)CCCc3cc(C(=O)NO)no3)n2)cc1
Out: 7.31

In: Continue with CC(C)(C)OC(=O)Nc1ccc(-c2csc(NC(=O)CCCc3cc(C(=O)NO)no3)n2)cc1
Out: 7.39
